Reported Excess HSA Score values for a set of compounds
system: THP1 cells; assay: Combination drug screening, Cell Titer Glo, THP1 cells; settings: sum score; listed as compound in combination with CG-806 (a FLT3/BTK inhibitor); THP1 cells; 10 × 10 dataset; 48 hours;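 note: luminescence read out in 1536-well plates seeded with 500 THP1 cells per well, each drug spanning a 10-point concentration range in the combination matrix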
ENDPOINT_LABEL: Excess HSA Score

• C[C@]12C=CC(=O)C=C1CC[C@@H]1[C@@H]2[C@@H](O)C[C@@]2(C)[C@H]1CC[C@]2(O)C(=O)CO [Prednisolone, prednisolone] = 335.9
• N#Cc1ccnc(N2C(=O)CC[C@H]2C(=O)N(c2cncc(F)c2)[C@H](C(=O)NC2CC(F)(F)C2)c2ccccc2Cl)c1 [Ivosidenib, ivosidenib] = 93.96
• CC(C)Nc1cc(-c2c[nH]c(C(=O)N[C@H](CO)c3cccc(Cl)c3)c2)c(Cl)cn1 [Ulixertinib, ulixertinib] = 518
• Nc1cccc2c1CN(C1CCC(=O)NC1=O)C2=O (stereo not shown) [Lenalidomide] = 534
• CC(C)[C@@H](CS(=O)(=O)C(C)C)N1C(=O)[C@@](C)(CC(=O)O)C[C@H](c2cccc(Cl)c2)[C@H]1c1ccc(Cl)cc1 [AMG-232, navtemadlin] = 917.1
• COc1cc(F)ccc1-c1cc(Nc2cc(CS(C)(=N)=O)ccn2)ncc1F (single isomer, unassigned; (+)) [(+)-BAY-1251152, BAY1251152] = −199.4
• NC1(C(=O)N[C@@H](CCO)c2ccc(Cl)cc2)CCN(c2nc[nH]c3nccc2-3)CC1 [AZD-5363, capivasertib] = −189.8

----------
Molecular target: FLT3 N841I (Homo sapiens, UniProt P36888, N841I)
Sequence (P36888 27-993 N841I): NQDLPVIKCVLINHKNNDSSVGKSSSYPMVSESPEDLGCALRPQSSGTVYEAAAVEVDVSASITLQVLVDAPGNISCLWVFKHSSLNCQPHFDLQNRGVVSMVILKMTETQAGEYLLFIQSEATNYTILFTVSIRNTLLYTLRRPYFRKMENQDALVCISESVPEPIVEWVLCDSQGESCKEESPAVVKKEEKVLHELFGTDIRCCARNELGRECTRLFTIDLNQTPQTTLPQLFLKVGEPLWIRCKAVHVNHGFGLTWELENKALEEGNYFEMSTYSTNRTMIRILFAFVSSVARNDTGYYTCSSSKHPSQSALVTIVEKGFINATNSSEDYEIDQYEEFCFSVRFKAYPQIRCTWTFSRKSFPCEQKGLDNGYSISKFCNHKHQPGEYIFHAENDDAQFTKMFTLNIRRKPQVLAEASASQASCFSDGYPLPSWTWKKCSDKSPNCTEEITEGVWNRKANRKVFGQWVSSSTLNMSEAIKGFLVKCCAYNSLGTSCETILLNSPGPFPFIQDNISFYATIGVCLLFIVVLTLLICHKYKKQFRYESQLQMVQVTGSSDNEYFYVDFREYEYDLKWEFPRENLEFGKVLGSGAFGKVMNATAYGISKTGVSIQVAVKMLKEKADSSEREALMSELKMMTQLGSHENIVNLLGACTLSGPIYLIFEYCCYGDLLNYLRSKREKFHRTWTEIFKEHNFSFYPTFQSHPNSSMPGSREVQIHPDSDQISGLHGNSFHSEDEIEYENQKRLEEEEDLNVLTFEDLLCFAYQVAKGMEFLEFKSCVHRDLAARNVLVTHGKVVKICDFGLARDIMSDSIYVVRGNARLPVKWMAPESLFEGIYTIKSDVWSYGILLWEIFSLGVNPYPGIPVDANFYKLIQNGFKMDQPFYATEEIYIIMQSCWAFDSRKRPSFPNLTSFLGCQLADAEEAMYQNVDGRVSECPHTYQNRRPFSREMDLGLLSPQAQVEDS
Assay: DiscoverX KINOMEscan competition binding, FLT3 N841I
Details: no ATP
pKd: −log10 of the molar value.
ENDPOINT_LABEL: pKd

- COc1cc2ncc(-c3nc(N[C@H]4CNCC[C@@H]4F)c(F)cc3F)n2nc1C1CCC1 [Compound 15a]: 9.60
